METHOD_DESCRIPTION: Bound water lifetime τM^298 of Ln(1)^3+ complexes by fitting temperature dependent 17O NMR bound water line widths; exchange limit regime Δω•τM calculated
Type: physicochemical
SETTINGS: 1.5 T
Mark 1 for Δω●τM (exchange limit regime) under 0.6, 0 if at or over.

Bench note: check whether CCOC(=O)CNC(=O)CN1CCN(CC(=O)NCC(=O)OCC)CCN(CC(=O)NCC(=O)OCC)CCN(CC(=O)NCC(=O)OCC)CC1.[Nd+3] [Nd(1)^3+] shows Δω●τM (exchange limit regime) below 0.6
0

Hello, I'm reviewing records and need to know if Δω●τM (exchange limit regime) of CCOC(=O)CNC(=O)CN1CCN(CC(=O)NCC(=O)OCC)CCN(CC(=O)NCC(=O)OCC)CCN(CC(=O)NCC(=O)OCC)CC1.[Pr+3] [Pr(1)^3+] is below 0.6. Could you check?
1

Input CCOC(=O)CNC(=O)CN1CCN(CC(=O)NCC(=O)OCC)CCN(CC(=O)NCC(=O)OCC)CCN(CC(=O)NCC(=O)OCC)CC1.[Er+3] [Er(1)^3+] ; condition: Δω●τM (exchange limit regime) strictly below 0.6. Does it hold?
0

Given the entry CCOC(=O)CNC(=O)CN1CCN(CC(=O)NCC(=O)OCC)CCN(CC(=O)NCC(=O)OCC)CCN(CC(=O)NCC(=O)OCC)CC1.[Sm+3] [Sm(1)^3+] , would its reported Δω●τM (exchange limit regime) be below 0.6?
1

Answer whether the molecule CCOC(=O)CNC(=O)CN1CCN(CC(=O)NCC(=O)OCC)CCN(CC(=O)NCC(=O)OCC)CCN(CC(=O)NCC(=O)OCC)CC1.[Yb+3] [Yb(1)^3+] has Δω●τM (exchange limit regime) strictly less than 0.6
1

###

METHOD_DESCRIPTION: Bound water lifetime τM^298 of Ln(1)^3+ complexes by fitting temperature dependent 17O NMR bound water line widths; exchange limit regime Δω•τM calculated
Assay type: physicochemical
SETTINGS: 4.7 T
MEASURED_ENDPOINT: Δω●τM (exchange limit regime)
Answer with the value's number alone.

Look up and report measured Δω●τM (exchange limit regime) for this entry: CCOC(=O)CNC(=O)CN1CCN(CC(=O)NCC(=O)OCC)CCN(CC(=O)NCC(=O)OCC)CCN(CC(=O)NCC(=O)OCC)CC1.[Sm+3] [Sm(1)^3+]
1.6

For CCOC(=O)CNC(=O)CN1CCN(CC(=O)NCC(=O)OCC)CCN(CC(=O)NCC(=O)OCC)CCN(CC(=O)NCC(=O)OCC)CC1.[Eu+3] [Eu(1)^3+] , write its Δω●τM (exchange limit regime).
24.0

Provide Δω●τM (exchange limit regime) value for the following molecule: CCOC(=O)CNC(=O)CN1CCN(CC(=O)NCC(=O)OCC)CCN(CC(=O)NCC(=O)OCC)CCN(CC(=O)NCC(=O)OCC)CC1.[Dy+3] [Dy(1)^3+]
15.4

Look up and report measured Δω●τM (exchange limit regime) for this entry: CCOC(=O)CNC(=O)CN1CCN(CC(=O)NCC(=O)OCC)CCN(CC(=O)NCC(=O)OCC)CCN(CC(=O)NCC(=O)OCC)CC1.[Ho+3] [Ho(1)^3+]
8.6

###

METHOD_DESCRIPTION: Bound water lifetime τM^298 of Ln(1)^3+ complexes by fitting temperature dependent 17O NMR bound water line widths; exchange limit regime Δω•τM calculated
Format: physicochemical
SETTINGS: Ln(1)^3+ complexes, 298 K
MEASURED_ENDPOINT: τM (bound water lifetime) (μs)
Report only the number, with the unit μs understood.

Look up τM (bound water lifetime) of `CCOC(=O)CNC(=O)CN1CCN(CC(=O)NCC(=O)OCC)CCN(CC(=O)NCC(=O)OCC)CCN(CC(=O)NCC(=O)OCC)CC1.[Pr+3]` and report it.
20

Identify the reported τM (bound water lifetime) for the following entry. `CCOC(=O)CNC(=O)CN1CCN(CC(=O)NCC(=O)OCC)CCN(CC(=O)NCC(=O)OCC)CCN(CC(=O)NCC(=O)OCC)CC1.[Eu+3]`
382

Please supply the value of reported τM (bound water lifetime) for the item `CCOC(=O)CNC(=O)CN1CCN(CC(=O)NCC(=O)OCC)CCN(CC(=O)NCC(=O)OCC)CCN(CC(=O)NCC(=O)OCC)CC1.[Tm+3]`
3

Determine its reported τM (bound water lifetime): `CCOC(=O)CNC(=O)CN1CCN(CC(=O)NCC(=O)OCC)CCN(CC(=O)NCC(=O)OCC)CCN(CC(=O)NCC(=O)OCC)CC1.[Er+3]`
9

Return reported τM (bound water lifetime). Input molecule: `CCOC(=O)CNC(=O)CN1CCN(CC(=O)NCC(=O)OCC)CCN(CC(=O)NCC(=O)OCC)CCN(CC(=O)NCC(=O)OCC)CC1.[Tb+3]`
31

Fill in reported τM (bound water lifetime) for this entry: `CCOC(=O)CNC(=O)CN1CCN(CC(=O)NCC(=O)OCC)CCN(CC(=O)NCC(=O)OCC)CCN(CC(=O)NCC(=O)OCC)CC1.[Dy+3]`
17
